Tested on: HeLa cells
Test: Compound screen by flow cytometry: HeLa cell count as surrogate readout of cell viability (z-scoreHeLa); also: test concentration or dose not given here
Type: cell-based, human
Details: PKIS compound screen raw data, HeLa cell count, replicate 1
property.label: cell count rep 1
Numbers only.

Below, 3 compounds whose answers are already recorded.
| compound | numeric.result |
| --- | --- |
| COc1ccc(Nc2nccc(NCCNC(=O)Nc3ccccc3F)n2)cc1 [GSK1379901A] | 4960 |
| Cc1cccc(Cn2ccn3c(=O)cc(N4CCOCC4)nc23)c1 [GSK2297542A] | 36714 |
| COc1cccc(CC(=O)N2CCc3cc(-c4cn(C)c5ncnc(N)c45)ccc32)c1 [GSK2608899A] | 3096 |

Could you now consider this next compound?
**Q:** Return cell count rep 1 measured with HeLa cells given this compound: CS(=O)(=O)Cc1ccc(Nc2nccc(-c3c(-c4cccc(NC(=O)C5CCCCC5)c4)nn4ncccc34)n2)cc1 [GSK350559A]
**A:** 4919
